# test_protocol: in vivo
# protocol_conditions: mouse, brain, mice, oral gavage at 20 mg/kg
measured_parameter: concentration at 2 h

Prompt: Sample CC(C)(O)c1coc(S(=O)(=O)NC(=O)Nc2c3c(cc4c2CCC4)CCC3)c1 [drawing 335] — what was its concentration at 2 h?
Response: 184 ng/g

----------
# test_protocol: Single dose pharmacokinetic study in mice (iv 4 mg/Kg, po 20 mg/Kg), plasma concentration post-dosing
# Assay type: in vivo, mouse
# protocol_conditions: male, C57BL/6, mouse, plasma, iv, 4 mg/kg, mouse, IV 4 mg/Kg, mean of 3 mice; read-out: AUC0-last, Mean IV
measured_parameter: AUC(0-t) (ng·h/mL)
Quick note: give the figure in ng·h/mL, leave out the unit.

CC(C)n1ccc(S(=O)(=O)NC(=O)Nc2c3c(cc4c2CCC4)CCC3)n1 [MCC_007840_002]	107000

Prompt: Sample CC(C)(O)c1coc(S(=O)(=O)NC(=O)Nc2c3c(cc4c2CCC4)CCC3)c1 [MCC_000950_016, reference compound] — what was its AUC(0-t)?
Response: 35400

----------
# experimental_system: NLRP3 inflammasome (Homo sapiens, UniProt Q96P20)
# Sequence (Q96P20 whole entry): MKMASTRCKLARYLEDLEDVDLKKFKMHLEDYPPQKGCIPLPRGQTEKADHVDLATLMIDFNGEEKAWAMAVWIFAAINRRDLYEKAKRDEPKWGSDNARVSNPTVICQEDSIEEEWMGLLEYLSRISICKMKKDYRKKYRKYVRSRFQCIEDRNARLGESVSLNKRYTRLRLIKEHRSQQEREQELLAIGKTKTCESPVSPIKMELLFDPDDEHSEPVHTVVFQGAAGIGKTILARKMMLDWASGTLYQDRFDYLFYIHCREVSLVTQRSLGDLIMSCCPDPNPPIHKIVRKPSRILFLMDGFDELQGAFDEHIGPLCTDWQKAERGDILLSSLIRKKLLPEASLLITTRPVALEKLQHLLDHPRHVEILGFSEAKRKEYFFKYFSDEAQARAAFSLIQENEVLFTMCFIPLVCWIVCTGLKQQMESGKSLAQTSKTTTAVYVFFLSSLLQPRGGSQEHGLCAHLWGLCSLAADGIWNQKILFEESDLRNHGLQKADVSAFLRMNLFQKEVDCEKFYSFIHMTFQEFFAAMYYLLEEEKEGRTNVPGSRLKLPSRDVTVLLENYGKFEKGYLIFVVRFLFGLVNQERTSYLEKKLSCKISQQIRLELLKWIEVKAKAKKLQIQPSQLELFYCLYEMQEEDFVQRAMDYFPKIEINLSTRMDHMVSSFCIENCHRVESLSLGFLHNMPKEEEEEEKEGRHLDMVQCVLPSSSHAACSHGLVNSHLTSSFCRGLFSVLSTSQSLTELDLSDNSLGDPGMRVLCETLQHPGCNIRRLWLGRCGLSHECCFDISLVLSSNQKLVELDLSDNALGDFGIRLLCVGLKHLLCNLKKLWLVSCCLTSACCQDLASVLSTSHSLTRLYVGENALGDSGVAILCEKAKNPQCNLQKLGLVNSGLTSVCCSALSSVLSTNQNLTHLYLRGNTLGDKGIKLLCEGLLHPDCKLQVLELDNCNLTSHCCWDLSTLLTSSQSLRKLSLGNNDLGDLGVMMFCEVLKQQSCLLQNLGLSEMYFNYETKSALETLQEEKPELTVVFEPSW
# test_protocol: Inhibition of IL-1β release, NLRP3 inflammasome activation assay in HMDM
# Type: cell-based
# protocol_conditions: inhibition of IL-1β release, class symbols, read-out: Avg. IL-1β IC50 HMDM
Catalogue of IC50 readings, one per entry.

Prompt: Sample O=C(Nc1c2c(cc3c1CCC3)CCC2)NS(=O)(=O)c1cccc(-n2cc(-c3ccccc3)nn2)c1 — what was its IC50?
Response: < 10 µM

Prompt: Sample O=C(Nc1c2c(cc3c1CCC3)CCC2)NS(=O)(=O)c1ccc2c(c1)CCC2 — what was its IC50?
Response: < 10 µM

Prompt: Sample CC(C)c1cc(Cl)cc(C(C)C)c1NC(=O)NS(=O)(=O)c1ccn(C(C)C)n1 — what was its IC50?
Response: < 1 µM

Prompt: Sample COc1ccc2c(c1NC(=O)NS(=O)(=O)c1cc(C(C)(C)O)co1)CCC2 — what was its IC50?
Response: < 1 µM

----------
# test_protocol: Single dose pharmacokinetic study in mice (iv 4 mg/Kg, po 20 mg/Kg), plasma concentration post-dosing
# Format: in vivo, mouse
# protocol_conditions: male, C57BL/6, mouse, plasma, iv, 4 mg/kg, mouse, IV 4 mg/Kg, individual mice M1-M3; read-out: AUC0-inf
Catalogue of AUC0-inf readings, one per entry.
Quick note: give the figure in ng·h/mL, leave out the unit.

Prompt: Sample CC(C)n1ccc(S(=O)(=O)NC(=O)Nc2c3c(cc4c2CCC4)CCC3)n1 — what was its AUC0-inf?
Response: 101000

Prompt: Sample CC(C)(O)c1coc(S(=O)(=O)NC(=O)Nc2c3c(cc4c2CCC4)CCC3)c1 [MCC_000950_016, reference compound] — what was its AUC0-inf?
Response: 41900

----------
Catalogue of AUC0-inf readings, one per entry.
# test_protocol: Single dose pharmacokinetic study in mice (iv 4 mg/Kg, po 20 mg/Kg), plasma concentration post-dosing
# Format: in vivo, mouse
# protocol_conditions: male, C57BL/6, mouse, plasma, iv, 4 mg/kg, mouse, IV 4 mg/Kg, mean of 3 mice; read-out: AUC0-inf, Mean IV
Quick note: give the figure in ng·h/mL, leave out the unit.

CC(C)n1ccc(S(=O)(=O)NC(=O)Nc2c3c(cc4c2CCC4)CCC3)n1	108000

Prompt: Sample CC(C)(O)c1coc(S(=O)(=O)NC(=O)Nc2c3c(cc4c2CCC4)CCC3)c1 [MCC_000950_016, reference compound] — what was its AUC0-inf?
Response: 35400
